system: human ACE; experiment: In vitro degradation in the presence of human ACE; assay type: in vitro ADME; conditions: human converting enzyme (human ACE), with captopril 10 μM; peptide 100 nM, human converting enzyme 5 mU, pH 7.5; T30 min; + captopril 10 μM; read-out: percentage of peptide assayed relative to the control
Residues, ends and D or L forms follow the SMILES beside them.
metric: remaining at 0.5 h, 100 nM (%)
Answers are plain numbers, in %.

Can you share its remaining at 0.5 h, 100 nM? I mean this compound: CC(=O)N[C@@H](CO)C(=O)N[C@@H](CC(=O)O)C(=O)N[C@@H](CCCCN)C(=O)N1CCC[C@H]1C(=O)O [AcSDKP, N-acetyl-Ser-Asp-Lys-Pro] (Ac-SDKP-OH; C-terminus assumed)
100

###

assay: in vivo; conditions: male, Wistar, rat, plasma, iv, 1.2 mg/kg
Residues, ends and D or L forms follow the SMILES beside them.
metric: level at time molar at 1 h (nM)
Numbers only, in nM.

Endpoint output: level at time molar at 1 h of CC(=O)N[C@@H](CO)C(=O)N[C@@H](CC(=O)O)C(=O)N[C@@H](CCCCN)C(=O)N1CCC[C@H]1C(=O)O [AcSDKP, N-acetyl-Ser-Asp-Lys-Pro] (Ac-SDKP-OH; C-terminus assumed) . Value?
8.2

###

assay: in vivo; conditions: male, Wistar, rat, plasma, iv, 0.82 mg/kg
Residues, ends and D or L forms follow the SMILES beside them.
metric: level at 10 min (ng/mL)
One number for each entry, in ng/mL.

Param item = CC(=O)N[C@@H](CO)C(=O)N[C@@H](CC(=O)O)C(=O)N[C@@H](CCCCN)C(=O)N1CCC[C@H]1C(N)=O [AcSDKP-NH2, N-acetyl-Ser-Asp-Lys-Pro-NH2] (Ac-SDKP-NH2) ; retrieve measured level at 10 min.
2330

###

test: in vivo; settings: male, Wistar, rat, plasma, iv
Residues, ends and D or L forms follow the SMILES beside them.
metric: clearance (mL/min/kg)
Give bare numbers, in mL/min/kg.

Which measured clearance value corresponds to CC(=O)N[C@@H](CO)C(=O)N[C@@H](CC(=O)O)C(=O)N[C@@H](CCCCN)C(=O)N1CCC[C@H]1C(N)=O [AcSDKP-NH2, N-acetyl-Ser-Asp-Lys-Pro-NH2] (Ac-SDKP-NH2) ?
8.1

###

test system: ACE (rat lung); construct: incubated with ground rat lung material (at 0.1 mg/ml); from tissue; host or cells: rat lung (ground material); test: In vitro degradation in the presence of rat lung ACE; assay type: in vitro ADME; details: ground rat lung material (rat lung ACE); peptide 100 nM, ground rat lung material 0.1 mg/ml, pH 7.5; T30 min; without captopril; read-out: percentage of peptide assayed relative to the control
Residues, ends and D or L forms follow the SMILES beside them.
metric: remaining at 0.5 h, 100 nM (%)
Give bare numbers, in %.

CC(=O)N[C@@H](CO)C(=O)N[C@@H](CC(=O)O)C(=O)N[C@@H](CCCCN)C(=O)N1CCC[C@H]1C(=O)O [AcSDKP, N-acetyl-Ser-Asp-Lys-Pro] (Ac-SDKP-OH; C-terminus assumed) | 28

Requested read-out: remaining at 0.5 h, 100 nM. Entry: CC(=O)N[C@@H](CO)C(=O)N[C@@H](CC(=O)O)C(=O)N[C@@H](CCCCN)C(=O)N1CCC[C@H]1C(N)=O [AcSDKP-NH2, N-acetyl-Ser-Asp-Lys-Pro-NH2] (Ac-SDKP-NH2)
100

###

assay: in vivo; settings: male, Wistar, rat, plasma, iv
Residues, ends and D or L forms follow the SMILES beside them.
metric: level at 0.5 h (ng/mL)
Give bare numbers, in ng/mL.

Endpoint output: level at 0.5 h of CC(=O)N[C@@H](CO)C(=O)N[C@@H](CC(=O)O)C(=O)N[C@@H](CCCCN)C(=O)N1CCC[C@H]1C(N)=O [AcSDKP-NH2, N-acetyl-Ser-Asp-Lys-Pro-NH2] (Ac-SDKP-NH2) . Value?
1010

###

assay: in vivo; conditions: male, Wistar, rat, plasma, iv, 1 mg/kg
Residues, ends and D or L forms follow the SMILES beside them.
metric: Vd (L/kg)
Numbers only, in L/kg.

Recorded Vd for CC(=O)N[C@@H](CO)C(=O)N[C@@H](CC(=O)O)C(=O)N[C@@H](CCCCN)C(=O)N1CCC[C@H]1C(N)=O [AcSDKP-NH2, N-acetyl-Ser-Asp-Lys-Pro-NH2] (Ac-SDKP-NH2) , please?
0.266

###

assay: in vivo; conditions: male, Wistar, rat, plasma, iv
Residues, ends and D or L forms follow the SMILES beside them.
metric: level at 2 h (ng/mL)
One number for each entry, in ng/mL.

Value lookup for level at 2 h; key = CC(=O)N[C@@H](CO)C(=O)N[C@@H](CC(=O)O)C(=O)N[C@@H](CCCCN)C(=O)N1CCC[C@H]1C(N)=O [AcSDKP-NH2, N-acetyl-Ser-Asp-Lys-Pro-NH2] (Ac-SDKP-NH2)
82

###

test system: ACE (rat lung); construct: incubated with ground rat lung material (at 0.1 mg/ml); from tissue; host or cells: rat lung (ground material); test: In vitro degradation in the presence of rat lung ACE; format: in vitro ADME; settings: ground rat lung material (rat lung ACE), with captopril 10 μM; peptide 100 nM, ground rat lung material 0.1 mg/ml, pH 7.5; T240 min; + captopril 10 μM; read-out: percentage of peptide assayed relative to the control
Residues, ends and D or L forms follow the SMILES beside them.
metric: remaining at 4 h, 100 nM
Hi, when you answer, please include the unit after the number. Thanks!

# get_value(readout= remaining at 4 h, 100 nM, system= ACE (rat lung)) for CC(=O)N[C@@H](CO)C(=O)N[C@@H](CC(=O)O)C(=O)N[C@@H](CCCCN)C(=O)N1CCC[C@H]1C(=O)O [AcSDKP, N-acetyl-Ser-Asp-Lys-Pro] (Ac-SDKP-OH; C-terminus assumed)
89%

###

assay: in vivo; settings: male, Wistar, rat, plasma, iv
Residues, ends and D or L forms follow the SMILES beside them.
metric: level at 4 h
# output: numeric value plus its unit

Param item = CC(=O)N[C@@H](CO)C(=O)N[C@@H](CC(=O)O)C(=O)N[C@@H](CCCCN)C(=O)N1CCC[C@H]1C(N)=O [AcSDKP-NH2, N-acetyl-Ser-Asp-Lys-Pro-NH2] (Ac-SDKP-NH2) ; retrieve measured level at 4 h.
3 ng/mL

###

tested on: ACE (rat lung); construct: incubated with ground rat lung material (at 0.1 mg/ml); from tissue; host or cells: rat lung (ground material); assay: In vitro degradation in the presence of rat lung ACE; assay type: in vitro ADME; details: ground rat lung material (rat lung ACE); peptide 100 nM, ground rat lung material 0.1 mg/ml, pH 7.5; T120 min; without captopril; read-out: percentage of peptide assayed relative to the control
Residues, ends and D or L forms follow the SMILES beside them.
metric: remaining at 2 h, 100 nM (%)
Numbers only, in %.

CC(=O)N[C@@H](CO)C(=O)N[C@@H](CC(=O)O)C(=O)N[C@@H](CCCCN)C(=O)N1CCC[C@H]1C(N)=O [AcSDKP-NH2, N-acetyl-Ser-Asp-Lys-Pro-NH2] (Ac-SDKP-NH2) | 95

Next up:
Looking for the measured remaining at 2 h, 100 nM of CC(=O)N[C@@H](CO)C(=O)N[C@@H](CC(=O)O)C(=O)N[C@@H](CCCCN)C(=O)N1CCC[C@H]1C(=O)O [AcSDKP, N-acetyl-Ser-Asp-Lys-Pro] (Ac-SDKP-OH; C-terminus assumed) , can you help?
5

###

Test system: human ACE
Assay: In vitro degradation in the presence of human ACE
Assay type: in vitro ADME
Settings: human converting enzyme (human ACE), with captopril 10 μM; peptide 100 nM, human converting enzyme 5 mU, pH 7.5; T10 min; + captopril 10 μM; read-out: percentage of peptide assayed relative to the control
Experimental: The peptides (100 nM) were incubated with ground rat lung material (at 0.1 mg/ml) or human converting enzyme (5 mU final concentration) in the presence or absence of captopril (10 μM final concentration) in 0.1 M Tris/HCl buffer+0.3 mM NaCl, pH=7.5. […] A methanol extraction was carried out in order to stop the reaction. At each time, the concentration of the nondegraded peptide was measured by enzyme immunoassay. […]
Residues, ends and D or L forms follow the SMILES beside them.
Please go through the items and note down their remaining at 10 min, 100 nM.
Answers are plain numbers, in %.

CC(=O)N[C@@H](CO)C(=O)N[C@@H](CC(=O)O)C(=O)N[C@@H](CCCCN)C(=O)N1CCC[C@H]1C(N)=O [AcSDKP-NH2, N-acetyl-Ser-Asp-Lys-Pro-NH2] (Ac-SDKP-NH2) | 90

We now examine a further compound.
Enter reported remaining at 10 min, 100 nM observed with human ACE for CC(=O)N[C@@H](CO)C(=O)N[C@@H](CC(=O)O)C(=O)N[C@@H](CCCCN)C(=O)N1CCC[C@H]1C(=O)O [AcSDKP, N-acetyl-Ser-Asp-Lys-Pro] (Ac-SDKP-OH; C-terminus assumed)
90
